Experiment: NCI Yeast Anticancer Drug Screen. Data for the cln2 rad14 strain (AID 165);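 further: 0% = growth equal to vehicle treated cultures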
Conditions: S. cerevisiae cln2 rad14 strain, at 50.0 µM, active compounds read high
Experimental: Growth inhibition of yeast strains with defined genetic alterations is measured as a screen for potential anti-cancer activity. Selected strains with alterations in DNA damage repair or cell cycle control were exposed to compounds and growth inhibition was measured relative to vehicle treated controls. The strain used in this assay is cln2 rad14
This is part of a sample that, as a whole, favours compounds with a hit. Of some 79,000 tested, about 15% had one in any assay.
Listed next: entries and their corresponding growth inhibition.

{"columns": ["compound", "growth inhibition [%]"],
 "data": [
  ["NCC1CC1", 8.65],
  ["COC(=O)C1=C(C(=O)OC)C2CCCOC2=C(C)C1 (stereo not given)", 41.2],
  ["COc1cc2c3c(c1)[nH]c(=S)n3C(=O)C(C)S2 (stereo not given)", -6],
  ["NCCNCc1ccccc1", 5.65],
  ["Cc1cc(N(C)C)c([N+](=O)[O-])cc1C=O", -22.4],
  ["CN1CCc2[nH]nc(-c3n[nH]c4c3CN(C)CC4)c2C1", -0.05],
  ["Cc1cc(Cc2cc(C)c(O)c(CN(C)C)c2)cc(CN(C)C)c1O", -19.5],
  ["CNC(=S)NC(=S)N(C)C", -25.8],
  ["CCCCC(CC)CN(CC)CC (stereo not given)", -10.4],
  ["COc1ccc(OC)c(/C=C/C2=C(C)C(=O)CC(c3cc(OC)ccc3OC)C2C)c1 (stereo not given)", 8.75],
  ["CC(C)C(C(N)=O)C(C)(C)C (stereo not given)", 8.6],
  ["C[C@H]1C[C@H]2[C@@H]3CC[C@@]4(OCC4=O)[C@@]3(C)C[C@H](O)[C@]2(F)[C@@]2(C)C=CC(=O)C=C12", -34.9],
  ["C/C(=N\\NC(N)=S)c1sc(-n2nc(-c3ccccc3)cc2-c2ccccc2)nc1C", 0.25],
  ["O=C1CCc2ccccc21", 15.1],
  ["NC1C2C=CC(C2)C1C(=O)O (stereo not given)", 4],
  ["Cc1ccc(-c2ccno2)cc1", -14.3],
  ["CC(C)(Oc1ccccc1)C(=O)Sc1c(-c2ccccc2)c(=O)n(-c2ccccc2)c(=S)n1-c1ccccc1", -5.4],
  ["O=C1CSC(c2ccc(F)cc2)N1c1nncs1 (stereo not given)", 3.6],
  ["OC(c1ccccc1)C1CC2C=CC1C2 (stereo not given)", 3.05],
  ["O=C(Nc1ccc(NC(=O)Nc2cc(C(F)(F)F)ccc2Oc2ccc(Cl)c(Cl)c2)cc1)Nc1cc(C(F)(F)F)ccc1Oc1ccc(Cl)c(Cl)c1", -23.2],
  ["c1ccc(Cn2nnnc2Nc2ccccc2)cc1", 19.8],
  ["Cn1c(=O)cc(CCl)c2ccccc21", 28.4],
  ["CCOC(=O)c1c(N)n(-c2ccccc2)c(=S)n(-c2ccccc2)c1=O", 14.6],
  ["COc1c(C)cc(-c2cc(C)c(OC)c(C)c2)cc1C", 9.4],
  ["O=C(O)C(Cc1ccsc1)C(=O)O", -17]
]}
